- TARGET_OF_ASSAY: HLA-A*31:01
- PROCEDURE_SUMMARY: IEDB peptide-MHC binding, purified MHC/competitive/radioactivity; filed as Kd, often an IC50 or EC50 that approximates it; bounds were set here for any values at or beyond the usual limits of such assays
- CONDITIONS: source organism: Vaccinia virus WR
pKd: −log10 of the molar value.
A collection of sequences and their measured pKd

SEQUENCE_CONTENT: IIVAGFSGK
pKd: 6.16
--
SEQUENCE_CONTENT: YIPGTSVIR
pKd: 6.18
--
SEQUENCE_CONTENT: SVFKGFSDK
pKd: 6.12
--
SEQUENCE_CONTENT: LIVTFRERY
pKd: 6.08
--
SEQUENCE_CONTENT: VSSLVKNVNK
pKd: 5.93
--
SEQUENCE_CONTENT: VFSFWLLCK
pKd: 6.06
--
SEQUENCE_CONTENT: NIERQDYRR
pKd: 5.82

====

- TARGET_OF_ASSAY: HLA-A*23:01
- PROCEDURE_SUMMARY: IEDB peptide-MHC binding, purified MHC/competitive/radioactivity; filed as Kd, often an IC50 or EC50 that approximates it; bounds were set here for any values at or beyond the usual limits of such assays
- CONDITIONS: source organism: SARS coronavirus Tor2
Let's look at some sequences and their measured Kd.

SEQUENCE_CONTENT: PYNSVTDTI
UOM: µM
QUALIFIER_SIGN: =
Kd: 0.0203
--
SEQUENCE_CONTENT: IDATSTGNY
UOM: µM
QUALIFIER_SIGN: ≥
Kd: 77.8
--
SEQUENCE_CONTENT: AMGKPVPYCY
UOM: µM
QUALIFIER_SIGN: ≥
Kd: 70
--
SEQUENCE_CONTENT: KTIVESCGNY
UOM: µM
QUALIFIER_SIGN: ≥
Kd: 70
--
SEQUENCE_CONTENT: VMMSAPPAEY
UOM: µM
QUALIFIER_SIGN: ≥
Kd: 39.9
--
SEQUENCE_CONTENT: FTSCELYHY
UOM: µM
QUALIFIER_SIGN: ≥
Kd: 38.1
--
SEQUENCE_CONTENT: ELSPRWYFY
UOM: µM
QUALIFIER_SIGN: =
Kd: 10.6
--
SEQUENCE_CONTENT: YSNRNRFLY
UOM: µM
QUALIFIER_SIGN: =
Kd: 5.69
--
SEQUENCE_CONTENT: LYIIKLVFLW
UOM: µM
QUALIFIER_SIGN: =
Kd: 0.000165
--
SEQUENCE_CONTENT: AMQKESDDY
UOM: µM
QUALIFIER_SIGN: ≥
Kd: 77.8

====

- TARGET_OF_ASSAY: HLA-A*03:01
- PROCEDURE_SUMMARY: IEDB peptide-MHC binding, purified MHC/competitive/radioactivity; filed as Kd, often an IC50 or EC50 that approximates it; bounds were set here for any values at or beyond the usual limits of such assays
- CONDITIONS: source organism: Vaccinia virus WR
Just a reminder that ties go to false: only Kd strictly below 300 nM counts as true.

SEQUENCE_CONTENT: SILDRIDTR
LABEL_VALUE: false
--
SEQUENCE_CONTENT: NTVVRDFENY
LABEL_VALUE: false
--
SEQUENCE_CONTENT: GVSYEVFDDY
LABEL_VALUE: false
--
SEQUENCE_CONTENT: AFVRFSTDK
LABEL_VALUE: false
--
SEQUENCE_CONTENT: SVDIETAIR
LABEL_VALUE: false
--
SEQUENCE_CONTENT: PLHKYCVNLY
LABEL_VALUE: false
--
SEQUENCE_CONTENT: IMLPESDLDK
LABEL_VALUE: false
--
SEQUENCE_CONTENT: KFLELKRGIY
LABEL_VALUE: false
--
SEQUENCE_CONTENT: DVLEIINDK
LABEL_VALUE: false
--
SEQUENCE_CONTENT: SSGFYFEIAR
LABEL_VALUE: false
--
SEQUENCE_CONTENT: LFDFVNEKY
LABEL_VALUE: false
--
SEQUENCE_CONTENT: FMRDWNSKY
LABEL_VALUE: false
--
SEQUENCE_CONTENT: YIPGTSVIR
LABEL_VALUE: false
--
SEQUENCE_CONTENT: YMVTDKTAY
LABEL_VALUE: false
--
SEQUENCE_CONTENT: TIERIFNAK
LABEL_VALUE: false
--
SEQUENCE_CONTENT: LFKNVRLLK
LABEL_VALUE: true
--
SEQUENCE_CONTENT: FSAGAGVLDK
LABEL_VALUE: false
--
SEQUENCE_CONTENT: CICYGSYSLY
LABEL_VALUE: true
--
SEQUENCE_CONTENT: QSYRQYRNY
LABEL_VALUE: false
--
SEQUENCE_CONTENT: SIKIKQDVR
LABEL_VALUE: false
--
SEQUENCE_CONTENT: ELALTDVEKR
LABEL_VALUE: false
--
SEQUENCE_CONTENT: SVFKGFSDK
LABEL_VALUE: true
--
SEQUENCE_CONTENT: NQNLIPSTVK
LABEL_VALUE: false
--
SEQUENCE_CONTENT: DISKLTNFK
LABEL_VALUE: false
--
SEQUENCE_CONTENT: RQQLEDIFMR
LABEL_VALUE: false
--
SEQUENCE_CONTENT: KLCKNHAEK
LABEL_VALUE: true
--
SEQUENCE_CONTENT: YTIERIFNAK
LABEL_VALUE: true
--
SEQUENCE_CONTENT: VVVKDDPDHY
LABEL_VALUE: false
--
SEQUENCE_CONTENT: FFVFIHMVR
LABEL_VALUE: true
--
SEQUENCE_CONTENT: PMPYMISTY
LABEL_VALUE: false
--
SEQUENCE_CONTENT: HSNLTETFR
LABEL_VALUE: true
--
SEQUENCE_CONTENT: FITKEIKNR
LABEL_VALUE: false
--
SEQUENCE_CONTENT: ISIYSRPKIK
LABEL_VALUE: true
--
SEQUENCE_CONTENT: DIVNEHDIKY
LABEL_VALUE: false
--
SEQUENCE_CONTENT: AVRAFLLRHY
LABEL_VALUE: false
--
SEQUENCE_CONTENT: ELQSVLVTTY
LABEL_VALUE: false
--
SEQUENCE_CONTENT: EVGSIRCVK
LABEL_VALUE: false
